Target: T1, human tenascin-C rCd4-His-FBG (rat; human, UniProt P05540 207-392, limits assumed)
T1 construct: domain: domains 3 and 4; C-terminal FBG fusion; biotinylated in the ELISA and HTRF screens; also called Hu TNC; human TNC rCd4-His-FBG; not shown: 6His tag
T1 sequence (chain (part 1 of 2)): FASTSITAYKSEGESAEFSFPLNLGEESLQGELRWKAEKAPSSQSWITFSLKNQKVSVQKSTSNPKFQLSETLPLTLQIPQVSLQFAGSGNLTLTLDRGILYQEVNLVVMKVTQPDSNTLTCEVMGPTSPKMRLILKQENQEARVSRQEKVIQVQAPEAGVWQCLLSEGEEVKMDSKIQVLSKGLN
T1 sequence (chain (part 2 of 2)): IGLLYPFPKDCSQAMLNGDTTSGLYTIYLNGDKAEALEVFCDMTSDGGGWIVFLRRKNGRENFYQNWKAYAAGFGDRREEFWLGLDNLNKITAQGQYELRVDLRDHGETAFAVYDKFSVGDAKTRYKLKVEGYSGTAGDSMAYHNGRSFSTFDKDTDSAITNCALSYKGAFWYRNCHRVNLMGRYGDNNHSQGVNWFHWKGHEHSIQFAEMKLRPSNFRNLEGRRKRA
Experiment: SPR off-rate screen, captured IgG4 supernatant, 25 C
Procedure: The 31 scFv of interest were sub-cloned into a human IgG4 expression vector for generation of antibodies as human IgG4 with a hinge-stabilising mutation (S241P; Angal et al, 1993). […] Off rates were determined by reference cell subtraction and fitting the sensogram experimental data assuming a 1:1 interaction using BIAevaluation software (GE, BR-1005-97).
readout: koff (s⁻¹)
Give just the number in s⁻¹; leave the unit off.

{"binder": "165_13_D1 human IgG4 (antibody, V domains shown, human IgG4 with hinge S241P) VH: QVQLVESGGGLVQPGRSLRLSCAASGFTFDDYAMHWVRQAPGKGLEWVSGISGSGGSTYYADSVKGRFTISRDNAKNSLYLQMNSLRAEDTALYYCAKGTRGEGDTFDIWGQGTMVTVSS VL: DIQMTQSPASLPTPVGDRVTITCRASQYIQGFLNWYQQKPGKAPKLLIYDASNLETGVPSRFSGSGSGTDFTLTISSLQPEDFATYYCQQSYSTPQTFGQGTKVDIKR", "koff (s⁻¹)": "1.4e-07"}
{"binder": "161_01_C09 human IgG4 (antibody, V domains shown, human IgG4 with hinge S241P; also called Antibody 161 01 C09 (derived from 2A5)) VH: EVRLVQSGAEVKKPGASVKVSCKVSGYTLTELSMHWVRQAPGKGLEWMGGFDPEDGETIYAQKFQGRVTMTEDTSTDTAYMELSSLRSEDTAVYYCATAQLPYLAQTYWGQGTLVTVSS VL: DIQMTQSPASLPTSVGDRVTITCRASQYIQGFLNWYQQKPGKAPRLLIYAASTLQDGVPSRFSGSGYGTDFTLTISSLQPEDFATYYCQQSYSTPWTFGQGTKVEIKR", "koff (s⁻¹)": "1.17e-07"}

For the next question, use this binder.
Enquiry: Which koff reading was recorded for the binder 162_02_D3 human IgG4 (antibody, V domains shown, human IgG4 with hinge S241P; also called Antibody 162 02 D3 (derived from 2A5)) VH: EVRLVQSGAEVKKPGASVKVSCKVSGYTLTELSMHWVRQAPGKGLEWMGGFDPEDGETIYAQKFQGRVTMTEDTSTDTAYMELSSLRSEDTAVYYCATAQIHPLGLTYWGQGTLVTVSS VL: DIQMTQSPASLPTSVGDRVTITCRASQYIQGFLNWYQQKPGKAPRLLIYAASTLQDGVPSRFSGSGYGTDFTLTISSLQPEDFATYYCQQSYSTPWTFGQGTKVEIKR ?
Return: 3.9e-07
